measured.property: melting point (°C)

Answered cases to consult:
compound	melting point, °C
O=c1nc(-c2cccc(Oc3ccccc3)n2)sc2ccccc12	161
CCC1CC2C3CC=C4CC(OC(C)=O)CCC4(C)C3CCC2(C)C1C(C)=O (centres undefined)	115

(1) COC(=O)Cc1ccc(OCc2ccc3ccccc3n2)c(Br)c1
(2) O=C1c2nccnc2C(O)N1c1ccc2ccc(Cl)nc2n1 (centres undefined)
(3) COCCCn1c(COc2ccccc2)nc2c(N)nc3ccccc3c21
Input: # rank_down: sort by melting point, max first Write the labels out in the order the request specifies.
Output: 2, 3, 1

----------
Catalogue of melting point values

Examples from the recorded data:
compound	melting point
CN(C)c1ccc(CC(=O)N2CCC(c3[nH]nc4c3C(=O)c3c(NC(=O)NN5CCOCC5)cccc3-4)CC2)cc1	107 to 109 °C
Oc1ccc(CN2CC=CCC2)cc1O	> 300 °C
C=CCN1C(=O)C2CCc3c(ccc(OC)c3OC)C2C1=O (stereo unspecified)	147 to 148 °C
Cc1cc(-c2cc(C(F)(F)F)n3ncc(I)c3n2)ccc1Cl	151 °C
c1ccc2c(N3CCCC3)nc(N3CCCC3)nc2c1	127 to 129 °C
N#CCc1ccc(F)cc1I	52 to 53 °C

Now turn to the next compound.
Input: Returns the measured melting point for the input compound. Input: C=S1c2ccccc2N(CCN2CCOCC2)C(=O)C1c1ccc(Cl)cc1 (stereo unspecified)
Output: 169 to 173 °C
